# Measurement target: delF508-CFTR-HRP (Homo sapiens, UniProt P13569, DEL508-508)
# Construct: expressed in transfected cells
# Sequence (P13569 with tags, fused parts or gaps DEL508-508): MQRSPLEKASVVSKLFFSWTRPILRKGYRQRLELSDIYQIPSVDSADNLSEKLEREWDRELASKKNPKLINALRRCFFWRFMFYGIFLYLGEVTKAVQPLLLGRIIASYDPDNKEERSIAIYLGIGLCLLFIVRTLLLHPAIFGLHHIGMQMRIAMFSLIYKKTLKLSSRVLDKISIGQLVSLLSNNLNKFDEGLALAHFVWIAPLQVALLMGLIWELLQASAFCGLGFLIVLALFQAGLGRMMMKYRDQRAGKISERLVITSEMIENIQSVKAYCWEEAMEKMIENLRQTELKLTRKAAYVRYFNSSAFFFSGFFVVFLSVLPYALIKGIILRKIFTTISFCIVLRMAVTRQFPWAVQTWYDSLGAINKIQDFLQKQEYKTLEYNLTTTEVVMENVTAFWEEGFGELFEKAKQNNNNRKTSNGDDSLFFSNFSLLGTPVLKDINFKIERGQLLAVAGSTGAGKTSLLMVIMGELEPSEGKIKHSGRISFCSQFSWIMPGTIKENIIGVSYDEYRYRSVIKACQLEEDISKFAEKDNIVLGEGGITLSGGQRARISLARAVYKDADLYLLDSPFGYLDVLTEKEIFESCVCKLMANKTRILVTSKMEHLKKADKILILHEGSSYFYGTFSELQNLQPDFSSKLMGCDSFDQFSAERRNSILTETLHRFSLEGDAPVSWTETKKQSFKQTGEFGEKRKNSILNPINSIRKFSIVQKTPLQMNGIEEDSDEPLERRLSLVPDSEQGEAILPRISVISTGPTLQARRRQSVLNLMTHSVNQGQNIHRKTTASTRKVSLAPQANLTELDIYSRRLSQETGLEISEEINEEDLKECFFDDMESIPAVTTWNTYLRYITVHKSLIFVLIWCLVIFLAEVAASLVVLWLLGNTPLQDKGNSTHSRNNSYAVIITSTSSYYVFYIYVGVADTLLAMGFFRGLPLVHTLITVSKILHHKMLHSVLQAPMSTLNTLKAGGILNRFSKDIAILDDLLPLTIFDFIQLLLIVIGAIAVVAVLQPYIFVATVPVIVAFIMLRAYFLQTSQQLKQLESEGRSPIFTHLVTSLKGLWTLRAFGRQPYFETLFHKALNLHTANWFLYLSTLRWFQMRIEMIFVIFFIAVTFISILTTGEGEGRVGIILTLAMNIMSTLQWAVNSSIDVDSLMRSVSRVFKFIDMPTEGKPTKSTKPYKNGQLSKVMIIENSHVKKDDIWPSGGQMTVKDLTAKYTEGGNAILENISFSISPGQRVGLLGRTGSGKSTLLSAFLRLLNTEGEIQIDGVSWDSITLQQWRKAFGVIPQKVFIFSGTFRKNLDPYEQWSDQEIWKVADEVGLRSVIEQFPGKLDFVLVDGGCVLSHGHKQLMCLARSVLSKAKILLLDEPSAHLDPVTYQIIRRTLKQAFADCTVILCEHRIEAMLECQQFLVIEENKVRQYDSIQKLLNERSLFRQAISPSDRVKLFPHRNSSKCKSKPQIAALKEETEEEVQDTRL
# Test protocol: Measurement of delF508-CFTR-HRP surface expression in CFBE41o- cells (HRP luminescence)
# Format: cell-based
# Experimental context: CFBE41o-, read-out: DelF508-CFTR-HRP Amax %
Measured metric: Emax (%)

Solved entries:
Compound smiles	Reported measurement
O=C(NS(=O)(=O)c1cccc(N2CC[C@H](O)C2)n1)C1(Oc2cc(Cl)ccc2N2CC3(CCC3)C2)CC1	729
Cc1ccc(C2CCC(F)(F)CC2)c(OC2(C(=O)NS(=O)(=O)c3cccc(N4CC(C)(NC(=O)OC(C)(C)C)C4)n3)CC2)c1	380

1 = O=C(NS(=O)(=O)c1cccc(N2CCC(O)CC2)n1)C1(Oc2cc(Cl)ccc2C2CC3(CCC3)C2)CC1
2 = Cc1ccc(C2CCCCC2)c(OC2(C(=O)NS(=O)(=O)c3cccc(N4CCC(N)CC4)n3)CC2)c1
INPUT: Form field 'greater Emax' accepts 1 or 2 ; which applies? Return value: the label identifying the chosen record.
OUTPUT: 1
(1: 446%, 2: 142%)

1 = O=C(NS(=O)(=O)c1cccc(N2CC[C@H](O)C2)n1)C1(Oc2cc(Cl)ccc2N2CCCC3(CCCC3)C2)CC1
2 = Cc1ccc(C2CCCCC2)c(OC2(C(=O)NS(=O)(=O)c3cccc(N4CC5(CCN5C(=O)OC(C)(C)C)C4)n3)CC2)c1
3 = Cc1ccc(C2CCCCC2)c(OC2(C(=O)NS(=O)(=O)c3nc(N)ccc3F)CC2)c1
4 = CC1(C)CCN(c2ccc(Cl)cc2OC2(C(=O)NS(=O)(=O)c3cccc(N4CC5CCC(C4)O5)n3)CC2)CC1
INPUT: Ordering criterion: Emax; begin with the maximum. Write the labels, ordered according to the request.
OUTPUT: 4, 1, 2, 3
(4: 693%, 1: 477%, 2: 243%, 3: 109%)

P = C[C@@H]1CN(c2cccc(S(=O)(=O)NC(=O)C3(Oc4cc(Cl)ccc4C4CCC(C)(C)CC4)CC3)n2)CCO1
Q = O=C(NS(=O)(=O)c1cccc(N2CC[C@H](O)C2)n1)C1(Oc2cc(Cl)ccc2C2CC3(CCC3)C2)CCCC1
INPUT: Form field 'greater Emax' accepts P or Q ; which applies? Return value: the label identifying the chosen record.
OUTPUT: P
(P: 591%, Q: 280%)

====

# Measurement target: delF508-CFTR-HRP (Homo sapiens, UniProt P13569, DEL508-508)
# Test protocol: Measurement of delF508-CFTR-HRP surface expression in CFBE41o- cells (HRP luminescence)
# Experimental context: mean of at least two replicates
Measured metric: EC50 (µM)

Solved entries:
Compound	EC50 [µM]
CC(C)COc1cccc(-c2ccc(Cl)cc2OC2(C(=O)NS(=O)(=O)c3cccc(N4CCC(C)(C#N)CC4)n3)CC2)c1 [Example 5-3]	0.75
O=C(NS(=O)(=O)c1cccc(N2CC[C@H](O)C2)n1)C1(Oc2cc(C(F)(F)F)ccc2-c2cccc(C(F)(F)F)c2)CC1 [Example 5-5]	2.05

A = Cc1ccc(C2CCC3(CCCC3)OC2)c(OC2(C(=O)NS(=O)(=O)c3cccc(N4CCC(O)(c5ccc(Cl)cc5)CC4)n3)CC2)c1 (single isomer, unassigned) [Example 11-3-1]
B = CC1(C)CCN(c2ccc(Cl)cc2OC2(C(=O)NS(=O)(=O)c3cccc(N)n3)CC2)CC1 [Example 9-45]
C = COc1ccc(C2CCC(F)(F)CC2)c(OC2(C(=O)NS(=O)(=O)c3cccc(N4CCC[C@H](CO)C4)n3)CC2)c1 [Example 3-7]
INPUT: Sort (3 compounds) by EC50: min first. Write the labels, ordered according to the request.
OUTPUT: A, B, C
